Molecular target: T1, human CD70, full length, on CHO cells (CHO-human CD70-B07) (human, UniProt P32970 1-193)
T1 construct: whole, on cells; Stably transfected CHO cells; also called CHO-CD70
T1 sequence (looked up): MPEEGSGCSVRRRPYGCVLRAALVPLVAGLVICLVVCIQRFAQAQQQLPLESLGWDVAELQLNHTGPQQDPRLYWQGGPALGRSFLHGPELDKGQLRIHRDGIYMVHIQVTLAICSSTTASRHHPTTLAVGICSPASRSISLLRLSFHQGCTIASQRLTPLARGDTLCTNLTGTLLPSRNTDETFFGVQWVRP
Assay: flow cytometry, chimeric IgG on CHO-human CD70 cells
pEC50: −log10 of the molar value.
As shown below, each of these binders has a reported pEC50 value.
quantity_name: pEC50

{"columns": ["binder", "assay_result"],
 "data": [
  ["32D1 chimeric antibody (antibody, V domains shown) VH: EVQLQQSGPELVKPGASLKMSCKASGYTFTDYVIHWVKQKPGQGLEWIGYLHPYNDDTKYNEKFKGKATLTSDKSSSTAYMELNSLTSEDSAVYYCARRGYYDYAWFADWGQGTLVTVSA VL: DIVLTQSPASLAVSLGQRATISCKASKSVSASGYTWMHWYQQKPGQAPKLLIYLASNLESGVPARFSGSGSGTDFTLNIHPVEEEDAATYYCQHSRELPPTFGGGTKLEIK", 7.92],
  ["25H7 chimeric antibody (antibody, V domains shown) VH: EIQLVQSGPELKKPGETVKISCKASGYTFTNYGMNWVKQTPGKGLKWMGWINTDTGEPTYADDFKGRFAFSLETSASTAYLQINNLKNEDMATYFCAREEDYRYVFNYWGQGTTLTVSS VL: DIQMTQTTSSLSASLGDRVTISCRASQDISNYLNWYQQKPDGTVKLLIYYTSRLHSGVPSRFSGSGSGTDYSLTISNLEQEDIATYFCQQGVTLPLTFGAGTKLELK", 7.79],
  ["14C12 chimeric antibody (antibody, V domains shown) VH: EVQLQQSGPELVKPGASVKMSCKASGYTFTDYVIHWVKQKPGQGLEWIGYLHPYNDDTKYNEKFKGKATLTSDKSSSTAYMELSSLTSEDSAVYYCARRGYYDYAWFADWGQGTLVTVSA VL: DIVLTQSPASLAVSLGQRATISCRASKSVSASGYTWIHWYQQKPRQAPKLLIYLASNLESGVPARFSGSGSGTDFTLNIHPVEEEDAATYYCQHSRELPPTFGGGTKLEIK", 7.82],
  ["23A11 chimeric antibody (antibody, V domains shown) VH: QVQLQQSGPGLVQPSQSLSITCTVSGFSLTTYAVHWVRQSPGKGLEWLGVIWSVGSTDYNAAFISRLSISKDNSKSQVFFKMNSLQADDTAIYYCARNIYYGNVYAMDYWGQGTSVTVSS VL: DIVLTQSPASLAVSLGQRATISCRASKSVDASGYSFMHWYQQKAGQPPKLLIYLASNLESGVPARFSGRGSGTDFTLNIHPVEEGDAATYYCQHSRELPLTFGAGTKLEIK", 7.93]
]}
